Test system: MS2 coat protein
Assay: apparent KD of MS2 coat protein; higher = weaker reporter binding
Settings: Eterna round: R107; input ligand: theophylline 2 mM
I would appreciate it if you labelled entries Yes when apparent KD of MS2 coat protein is 30 nM or higher, otherwise No.

Worked examples follow.
1) CUCAUCCACGCGGCCGCCACUAUAUUGUGGUGUGAAUGUGACGUAUUACAAGAGGAUCACCCUUGUAGGACCGGGCGUGGAUGAG [Tryp B Ex Mod1] :: Yes
2) GGUGGCGGGACUGAUACCAGCCACCACCGAUAGACCACAUGAGGAUCACCCAUGUUGGGUGGCCCUUGGCAGCAGUCUUGCGGCU [#1 Same State - Theophylline B Attempt #14 (HarryS)] :: Yes
3) UGUAUGGACUGAAGGAGCGGAUGAUAACCUGAGGAUCACCCGGGUAAUAAGGCGAAAGCCAUCCAGGUAGGUCGCAGUCCAUACU :: Yes
4) UCGCUCGCCGAAAGGCGAGCGAGUUGCGAUACCAGCCCGGAAACGGGCCCUUGGCAGCGCACAUGAGGAUCACCCAUGUCAUGUU [#1 Exclusion - Theophylline A Attempt #3 (HarryS)] :: Yes

Exercise: Textbook exercise: given the entry GGUGGCGGGACUGAUACCAGCCACCACCGAUAGACCACAUGAGGAUCACCCAUGUUGGGUGGCCCUUGGCAGCAGUCUUGCGUCG [#1 Same State - Theophylline B Attempt #16 (HarryS)] , state whether its apparent KD of MS2 coat protein is greater than or equal to 30 nM.
Solution: No

Exercise: Can AUAACAUGAGGAUCACCCAUGUAUUGGUAACGAGGACCGGUACGGCCGCCACUCGAAUUUUGGUGGUAUAAUAUAUAUAUGAUUA [JR_SSTryptoA_Sub016] be said to have apparent KD of MS2 coat protein at or above 30 nM?
Solution: No

* * *

Tested on: MS2 coat protein
Assay: apparent KD of MS2 coat protein; designed switch direction (-1 OFF switch, 1 ON switch): -1; higher = weaker reporter binding
Settings: Eterna round: R95; input ligand: microRNA oligo, concentration not stated
reported metric: apparent KD of MS2 coat protein (nM)
A number alone suffices; assume nM.

These solved cases illustrate the format of a correct answer.
1. UACUAUAAGGAGGAUAUCGUAUCGGAAACGAUACGAGAAGGCUUAACAUGAGGAUCACCCAUGUUCUUCAAUAU [Fiskers Ex 6 - 26] (puzzle: Exclusion 6) :: 16.2
2. AAAAUAAGUGUGAGGAUAUGCUGGUCCUUGGAUCAGCAGAAGGCACAUGAGGAUCACCCAUGUAAUAUAUUUAU [Mat - Exclusion 4 - JL Mod - D62] (puzzle: Brourd's mod of Exclusion 4) :: 77.3
3. GGUUGGCGAGGAUAUACAUGAGGAUCACCCAUGUGAGAAAAAAAAGUGAGGAAGAAAAGUAGAAGGCGCUGACG [salish99_ex3_r3_015] (puzzle: Exclusion 3) :: 37.7
4. CUUUUGUGAGGAUAUCAGUAGUAAAUUAAUAAAAUUACUACUGAGAAGGCACAUGAGGAUCACCCAUGUUCCUC [salish99_ex3_r3_078] (puzzle: Exclusion 4) :: 41.9

Exercise: Endpoint output: apparent KD of MS2 coat protein of AUCAUGUAAGGAUAUCUGACAUGUGACUUCGGUCACUGUUCAGAGAAGGUACAUGAGGAUCACCCAUGUAGAAC [Ex4-3: 44] (puzzle: Exclusion 4) . Value?
Solution: 59.6

* * *

System: MS2 coat protein
Test: apparent KD of MS2 coat protein; designed switch direction (-1 OFF switch, 1 ON switch): 1; higher = weaker reporter binding
Conditions: input ligand: none
reported metric: apparent KD of MS2 coat protein (nM)
Numbers only; they are read as nM.

1) CAUCUAUACGUAGGAUAUGUAGGAUAUGCCUACAUGAGGAUCACCCAUGUUCGCAUGGCAGAAGGACAGAAGGACGAACUACUU [pwkr ssNG2 2FMN + 1F5.6] (Eterna round: R96, puzzle: Same State NG 2) :: 234
2) UUCUCUCUGGUAGGAUAUGUAGGAUAUGUACAUGAGGAUCACCCAUGUCAGUUAAUGACAGAAGGAUAGAAGGACCAGAUCUCU [pwkr ssNG2 2FMN 1F5s.2] (Eterna round: R96, puzzle: Same State NG 2) :: 127

Exercise: Which measured apparent KD of MS2 coat protein value corresponds to UGGUACAUGGGAGGAUAUGGAGUGAUGACAUGAGGAUCACCCAUGUUAUUUAUGCCGAGAGGCAACUAGAAGGCCCAUGUACCU [JL SSNG1 3.96] (Eterna round: R96, puzzle: Same State NG 2) ?
Solution: 52

Exercise: Which apparent KD of MS2 coat protein is reported for this sequence? GGACGUCGAUAAUAUAACUUCACAUGAGGAUCACCCAUGUCACAGGAUAUGGAUCCUAAUUGGAUCCAGAAGGGUGCGACGUCC [Fiskers NG3ss - 36] (Eterna round: R96, puzzle: Same State NG 3)
Solution: 88.8

Exercise: Fill blank: measured apparent KD of MS2 coat protein of the sequence GUUACAUGAGGAUCACCCAUGUAUGUGUGGGAGUAAGUGUCUUAGGAUAUCUAGUAUUUGAUUUAAGAGAAGGAAGAUUGUUGU [JMF's solution 60] (Eterna round: R96, puzzle: Same State NG 3) is ____.
Solution: 110

Exercise: # apparent KD of MS2 coat protein lookup, item AGCUAUUACGAAGGAUAUUGUAACAUGAGGAUCACCCAUGUUUACAUGAUUAAUUGUGAUCACGUCGAGAAGGUUGUACUAACA [SameState NG2 #33] (Eterna round: R96, puzzle: Same State NG 2)
Solution: 19

Exercise: Could you tell me which apparent KD of MS2 coat protein is on file for CGGGUGGUUCUAGGAUAUCUAGGAUAUGGACGAGGAUUACCCGAGCAGCAUUAGCGCACCAGAGGAGAGAAGGAGAGUGAUGCG [pwkr ssNG2 2F5 2FMN.16] (Eterna round: R96, puzzle: Same State NG 2) ?
Solution: 53.3

Exercise: What value of apparent KD of MS2 coat protein has been recorded for this entry: GCCAUCCAGUGAGGAUAUGGCACCGAAACGGUGCCAGAAGGCAUGUCAAUUGACAUGAGGAUCACCCAUGUAUUAUGGAUGGCA [Mat - Same State NG 1 - JL mod - D85] (Eterna round: R96, puzzle: Same State NG 1)
Solution: 695

Exercise: Given AGGCUCAGAGCAGGAUAUACGUGGUCACAUGAGGAUCACCCAUGUCUCGAGCUUCGGCUCGAGGCGUAGAAGGGCUCUGAGCCA [SSNG2/6-B1] (Eterna round: R96, puzzle: Same State NG 2) , state its recorded apparent KD of MS2 coat protein.
Solution: 330

Exercise: Please give the measured apparent KD of MS2 coat protein for this sequence: GCUCGACGUGUUGUCUACAUGAGGAUCACCCAUGUAGGUGCGGAGGAUAUCUACGUGUUUCAUGUAGAGAAGGUCGUGUCGAGC [SameState NG3 #89] (Eterna round: R96, puzzle: Same State NG 3)
Solution: 73.3

Exercise: Which measured apparent KD of MS2 coat protein value corresponds to GAGUAGUUGAAAGGAUAUUGAUUAUUGUAGGAUCAAGAAGGUUUUAACAUGAGGAUCACCCAUGUAGGACUAUAUAUGUGAAUA [Parity 95 - Jieux - Same State NG 1] (Eterna round: R96, puzzle: Same State NG 1) ?
Solution: 16

Exercise: What value of apparent KD of MS2 coat protein has been recorded for this entry: GGUCCAGCCUGAGCUGGACUACAGCAUGUACAUGAGGAUCACCCAUGUCAUGUACAUGUUUUUUGUUUGUCUUAAAA [Sensorship 9 - Jieux - Sensor for hsa-mir-208a] (Eterna round: R96, puzzle: Sensor for hsa-mir-208a)
Solution: 503

* * *

System: MS2 coat protein
Experiment: apparent KD of MS2 coat protein; designed switch direction (-1 OFF switch, 1 ON switch): -1; higher = weaker reporter binding
Details: input ligand: FMN 200 uM
Outcome label depends on apparent KD of MS2 coat protein relative to 300 nM: at/above gives MET, below gives NOT MET.

1. CAAUACAAGCGAAGAUCCUACAUGAGGAUCACCCAUGUGCUCGUCUUAAAAGGUACUGAGACGAAAGUCUCGGUACC [Mat - Sensor, turn-off var - Eli Mod - D99] (Eterna round: R97, puzzle: Sensor, turn-off variant 1) :: NOT MET
2. GGAUUUCCUGAGGAUAUUGCAUCACCCGAUUUAUAAGAAGGCAGAACAUGAGGAUCACCCAUGUGGGUCUCCAG [Bingo-Bango-24] (Eterna round: R97, puzzle: Exclusion 6) :: NOT MET
3. GGAUCGAAUGUGAGGAUAUGCUGGUCCUUGGAUCAGCAGAAGGCACAUGAGGAUCACCCAUGUCCAAACGGUCC [Eli bmx4 4.44] (Eterna round: R97, puzzle: Brourd's mod of Exclusion 4) :: MET
4. UAAUGUAUAUAGGAUAUCUAGCUGGAAACAGCUAGAGAAGGAUGUACAUGAGGAUCACCCAUGUAAAUCGUGAA [Ex6/13-B1] (Eterna round: R97, puzzle: Exclusion 6) :: NOT MET

Kindly consider the entry below.
Exercise: Check the entry CGGAUGUAAGGAUAUUAGUAGUAGUCAGAAAAGACUAUUACUGAGAAGGUACAUGAGGAUCACCCAUGUUUCCG [Mat - Exclusion 4 - Eli Mod - D43] (Eterna round: R97, puzzle: Exclusion 4) : does apparent KD of MS2 coat protein equal or exceed 300 nM?
Solution: NOT MET
